Entries and their log10 of IC50
- system: Stromelysin-1 (Homo sapiens)
- Sequence (P08254 whole entry): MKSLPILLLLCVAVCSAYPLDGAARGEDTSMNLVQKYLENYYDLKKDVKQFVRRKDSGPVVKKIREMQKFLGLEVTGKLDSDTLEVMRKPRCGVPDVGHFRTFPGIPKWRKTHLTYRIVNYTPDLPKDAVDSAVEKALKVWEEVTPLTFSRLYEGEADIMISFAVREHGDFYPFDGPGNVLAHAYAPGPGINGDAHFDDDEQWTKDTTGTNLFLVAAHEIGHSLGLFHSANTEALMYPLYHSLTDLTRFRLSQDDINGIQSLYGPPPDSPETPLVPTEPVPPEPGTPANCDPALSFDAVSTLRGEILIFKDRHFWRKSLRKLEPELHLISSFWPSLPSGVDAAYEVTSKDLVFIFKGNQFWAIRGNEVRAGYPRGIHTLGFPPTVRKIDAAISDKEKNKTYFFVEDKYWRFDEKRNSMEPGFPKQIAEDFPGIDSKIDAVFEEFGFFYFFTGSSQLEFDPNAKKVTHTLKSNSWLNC
// units: µM (pre-log); metric: IC50; scale: log10

INSERT INTO assay_data (compound, readout_number) VALUES
  ('COc1ccc(C(=O)Nc2ccc(S(=O)(=O)NC(CC#CCOc3ccccc3)C(=O)O)cc2)cc1 (stereo not drawn)', 0.59);

INPUT: log10 of IC50 of COc1ccc(-c2ccc(S(=O)(=O)NC(CC#CCc3ccccc3)C(=O)O)cc2)cc1 (stereo not drawn) on Stromelysin-1 (Homo sapiens)?
OUTPUT: -0.11

INPUT: log10 of IC50 of O=C(O)C(CC#Cc1ccccc1)NS(=O)(=O)c1ccc(-c2ccc3c(c2)OCO3)cc1 (stereo not drawn) on Stromelysin-1 (Homo sapiens)?
OUTPUT: 0.74

INPUT: log10 of IC50 of COc1ccc(-c2ccc(S(=O)(=O)NC(C(=O)O)[C@@H](C#Cc3ccccc3)OC)cc2)cc1 (stereo partly drawn) on Stromelysin-1 (Homo sapiens)?
OUTPUT: 0.57

INPUT: log10 of IC50 of COc1ccc(-c2ccc(S(=O)(=O)NC(C(=O)O)[C@@H](C#Cc3ccccc3)OCc3ccccc3)cc2)cc1 (stereo partly drawn) on Stromelysin-1 (Homo sapiens)?
OUTPUT: 0.63

INPUT: log10 of IC50 of COCC#CCC(NS(=O)(=O)c1ccc(NC(=O)c2ccc(OC)cc2)cc1)C(=O)O (stereo not drawn) on Stromelysin-1 (Homo sapiens)?
OUTPUT: 0.95
